quantityMeasured: IC50

Enquiry: What is its IC50 for ErbB2 (HER2) (Homo sapiens (Human))? Entry: CN(C)C/C=C/C(=O)Nc1cc2c(Nc3ccc(F)c(Cl)c3)ncnc2cc1OCC1C2COCC21 (stereo not shown)
Return: 6 nM

---

- measurementNotes: Pharmacokinetics studies in mice
- Type: in vivo, CD-1 mice
- runConditions: CD-1; mouse plasma; PO 5 mg/Kg
Task for the reader: assign each of the following compounds its reported AUC(0-t).
Numbers only here, please. The scale is ng·h/mL.

Enquiry: Which AUC(0-t) is listed for `CN(C)C/C=C/C(=O)Nc1cc2c(Nc3ccc(F)c(Cl)c3)ncnc2cc1OC[C@H]1[C@@H]2COC[C@@H]21` ?
Return: 1420

Enquiry: Query: AUC(0-t); subject: CN(C)C/C=C/C(=O)Nc1cc2c(Nc3ccc(F)c(Cl)c3)ncnc2cc1O[C@H]1CCOC1 [afatinib, reference compound]
Return: 167

---

- measurementNotes: Pharmacokinetics studies in rats
- Assay type: in vivo, Sprauge Dawley rats
- runConditions: male, Sprague-Dawley; rat plasma; PO 5 mg/Kg
quantityMeasured: AUC(0-inf) (ng·h/mL)
Respond with the bare value in ng·h/mL.

Enquiry: Recorded AUC(0-inf) for CN(C)C/C=C/C(=O)Nc1cc2c(Nc3ccc(F)c(Cl)c3)ncnc2cc1O[C@H]1CCOC1 [afatinib, reference compound] , please?
Return: 328

Enquiry: Tell me the measured AUC(0-inf) of `CN(C)C/C=C/C(=O)Nc1cc2c(Nc3ccc(F)c(Cl)c3)ncnc2cc1OC[C@H]1[C@@H]2COC[C@@H]21` , please.
Return: 843

---

- measurementNotes: Pharmacokinetics studies in mice
- Format: in vivo, CD-1 mice
- runConditions: CD-1; mouse plasma; IV 1 mg/Kg
quantityMeasured: AUC(0-inf) (ng·h/mL)
Just the number please, in ng·h/mL, no unit attached.

Enquiry: What AUC(0-inf) value was documented for this compound, CN(C)C/C=C/C(=O)Nc1cc2c(Nc3ccc(F)c(Cl)c3)ncnc2cc1OC[C@H]1[C@@H]2COC[C@@H]21 [NT112] ?
Return: 592

---

- measurementNotes: Pharmacokinetics studies in rats
- Format: in vivo, Sprauge Dawley rats
- runConditions: male, Sprague-Dawley; rat plasma; IV 1 mg/Kg
quantityMeasured: AUC(0-inf) (ng·h/mL)
Please respond with the number in ng·h/mL and leave the unit unwritten.

Enquiry: Query (compound): CN(C)C/C=C/C(=O)Nc1cc2c(Nc3ccc(F)c(Cl)c3)ncnc2cc1O[C@H]1CCOC1 [afatinib, reference compound] ; field requested: AUC(0-inf)
Return: 147

Enquiry: For `CN(C)C/C=C/C(=O)Nc1cc2c(Nc3ccc(F)c(Cl)c3)ncnc2cc1OC[C@H]1[C@@H]2COC[C@@H]21` , what is its reported AUC(0-inf)?
Return: 248

---

- measurementNotes: Pharmacokinetics studies in rats
- Assay type: in vivo, Sprauge Dawley rats
- runConditions: male, Sprague-Dawley; rat plasma; IV 1 mg/Kg; read-out: Vz
Kindly supply the reported Vd values for the records listed here.
API: value field is a number in L/kg; no unit string.

Enquiry: Look up Vd for this molecule: CN(C)C/C=C/C(=O)Nc1cc2c(Nc3ccc(F)c(Cl)c3)ncnc2cc1OC[C@H]1[C@@H]2COC[C@@H]21 [NT112]
Return: 10.6

Enquiry: Field request: Vd | item: CN(C)C/C=C/C(=O)Nc1cc2c(Nc3ccc(F)c(Cl)c3)ncnc2cc1O[C@H]1CCOC1 [afatinib, reference compound]
Return: 15.2
